# Test system: Enterococcus sp.
# assay_name: in vitro antibacterial evaluation, MIC by broth dilution
# Type: cell-based
# experimental_setup: Enterococcus faecium (GC 4557); broth dilution, 18 hours at 35° C.
Property: MIC Enterococcus faecium (GC 4557); scope: individual molecules
The answer is to be given in µg/mL; state only the numeric part.

{"columns": ["molecule", "unit_abbreviation", "MIC Enterococcus faecium (GC 4557)"],
 "data": [
  ["CC(c1ccccc1)C1NC(=O)CNC(=O)C(CO)NC(=O)C(C(O)C2CN(CCCCCCCCCCCCO)C(=N)N2C2OC(CO)C(O)C(O)C2O)NC(=O)C(C(O)C2CNC(=N)N2)NC(=O)C(Cc2ccc(OC3OC(CO)C(OC4OC(CO)C(O)C(O)C4O)C(O)C3O)cc2)NC1=O (stereo not shown) [Example 61]", "µg/mL", 128],
  ["CC(c1ccccc1)C1NC(=O)CNC(=O)C(CO)NC(=O)C(C(O)C2CNC(=N)N2C2OC(CO)C(O)C(O)C2O)NC(=O)C(C(O)C2CNC(=N)N2)NC(=O)C(Cc2ccc(OC3OC(CO)C(OC4OC5COC(Cc6ccc(Cl)cc6)OC5C(O)C4O)C(O)C3O)cc2)NC1=O (stereo not shown) [Example 120]", "µg/mL", 1],
  ["Cc1ccc(CC2OCC3OC(OC4C(CO)OC(Oc5ccc(CC6NC(=O)C(C(C)c7ccccc7)NC(=O)CNC(=O)C(CO)NC(=O)C(C(O)C7CNC(=N)N7C7OC(CO)C(O)C(O)C7O)NC(=O)C(C(O)C7CNC(=N)N7)NC6=O)cc5)C(O)C4O)C(O)C(O)C3O2)cc1 (stereo not shown) [Example 119]", "µg/mL", 1],
  ["CC(c1ccccc1)C1NC(=O)CNC(=O)C(CO)NC(=O)C(C(O)C2CNC(=N)N2C2OC(CO)C(O)C(O)C2O)NC(=O)C(C(O)C2CNC(=N)N2)NC(=O)C(Cc2ccc(OC3OC(CO)C(OC4OC5COC(c6cccs6)OC5C(O)C4O)C(O)C3O)cc2)NC1=O (stereo not shown) [Example 132]", "µg/mL", 4],
  ["CC(c1ccccc1)C1NC(=O)CNC(=O)C(CO)NC(=O)C(C(O)C2CNC(=N)N2C2OC(CO)C(O)C(O)C2O)NC(=O)C(C(O)C2CNC(=N)N2)NC(=O)C(Cc2ccc(OC3OC(CO)C(OC4OC5COC(CC67CC8CC(CC(C8)C6)C7)OC5C(O)C4O)C(O)C3O)cc2)NC1=O (stereo not shown) [Example 129]", "µg/mL", 2]
]}

Next item in the queue.
### Prompt Using known records, supply MIC Enterococcus faecium (GC 4557) for CC(c1ccccc1)C1NC(=O)CNC(=O)C(CO)NC(=O)C(C(O)C2CNC(=N)N2C2OC(CO)C(O)C(O)C2O)NC(=O)C(C(O)C2CNC(=N)N2)NC(=O)C(Cc2ccc(OC3OC(CO)C(OC4OC(CO)C(O)C5OC(c6ccccc6)OC45)C(O)C3O)cc2)NC1=O (single isomer, unassigned) [Example 104a]
### Response 0.5

###

Property: MIC Staphylococcus aureus-SMITH (GC 4543); scope: individual compounds
# Tested on: Staphylococcus sp.
# assay_name: in vitro antibacterial evaluation, MIC by broth dilution
# Format: cell-based
# experimental_setup: broth dilution, 18 hours at 35° C.; strain SMITH GC 4543
Numbered stars: 1 amine (or outer) side, 2 acyl side, 3 side chain; on linkers, the order of the positions; unused ones are H or OH. Square brackets hold non-standard residues; d marks the D form. Peptide text beside a SMILES is read from it. * marks the point of attachment. ξ: configuration not given here. X6 = N=C1NCC(CC(N[*:1])C(=O)[*:2])N1C1OC(CO)C(O)C(O)C1O; ξEnduracididine(βξ-OH,4'ξ) = N=C1NCC(C(O)C(N)C(=O)O)N1; X2 = OCC1OC(OC2C(CO)OC(*)C(O)C2O)C(O)C(O)C1O; ξPhe(βξ-Me) = CC(c1ccccc1)C(N)C(=O)O

{"columns": ["compound", "result"],
 "data": [
  ["CC(c1ccccc1)C1NC(=O)CNC(=O)C(CO)NC(=O)C(C(O)C2CNC(=N)N2C2OC(CO)C(O)C(O)C2O)NC(=O)C(C(O)C2CNC(=N)N2)NC(=O)C(Cc2ccc(OC3OC(CO)C(OC4OC(CO)C(O)C5OC(CC67CC8CC(CC(C8)C6)C7)OC45)C(O)C3O)cc2)NC1=O (stereo not shown)", "2 µg/mL"],
  ["CCCCCC1OCC2OC(OC3C(CO)OC(Oc4ccc(CC5NC(=O)C(C(C)c6ccccc6)NC(=O)CNC(=O)C(CO)NC(=O)C(C(O)C6CNC(=N)N6C6OC(CO)C(O)C(O)C6O)NC(=O)C(C(O)C6CNC(=N)N6)NC5=O)cc4)C(O)C3O)C(O)C(O)C2O1 (stereo not shown)", "1 µg/mL"],
  ["N=C1NCC(C(O)C2NC(=O)C(Cc3ccc(OC4OC(CO)C(OC5OC(CO)C(O)C(O)C5O)C(O)C4O)cc3)NC(=O)C(Cc3ccccc3)NC(=O)CNC(=O)C(CO)NC(=O)C(C(O)C3CNC(=N)N3)NC2=O)N1 (stereo not drawn) [Example 296] (cyclo(GFY(X2)[ξEnduracididine(βξ-OH,4'ξ)][ξEnduracididine(βξ-OH,4'ξ)]S); configuration not given here)", ">128 µg/mL"],
  ["N=C1NCC(C(O)C2NC(=O)[C@H](C(O)C3CNC(=N)N3)NC(=O)C(Cc3ccc(O)cc3)NC(=O)[C@H](Cc3ccccc3)NC(=O)CNC(=O)[C@H](CO)NC2=O)N1 (stereo in doubt) [Example 280a]", ">128 µg/mL"],
  ["CC(c1ccccc1)C1NC(=O)CNC(=O)C(CO)NC(=O)C(C(O)C2CNC(=N)N2C2OC(CO)C(O)C(O)C2O)NC(=O)C(C(O)C2CNC(=N)N2)NC(=O)C(Cc2ccc(OC3OC(CO)C(OC4OC5COC(c6ccsc6)OC5C(O)C4O)C(O)C3O)cc2)NC1=O (stereo not shown)", "1 µg/mL"]
]}

### Prompt Using known records, supply MIC Staphylococcus aureus-SMITH (GC 4543) for CC(c1ccccc1)C1NC(=O)CNC(=O)C(CO)NC(=O)C(CC2CNC(=N)N2C2OC(CO)C(O)C(O)C2O)NC(=O)C(CC2CNC(=N)N2)NC(=O)C(Cc2ccc(OC3OC(CO)C(OC4OC(CO)C(O)C(O)C4O)C(O)C3O)cc2)NC1=O (stereo not shown) [Example 277a]
### Response >128 µg/mL

### Prompt Using known records, supply MIC Staphylococcus aureus-SMITH (GC 4543) for CC(c1ccccc1)C1NC(=O)CNC(=O)C(CO)NC(=O)C(CC2CNC(=N)N2C2OC(CO)C(O)C(O)C2O)NC(=O)C(C(O)C2CNC(=N)N2)NC(=O)C(Cc2ccc(OC3OC(CO)C(OC4OC(CO)C(O)C(O)C4O)C(O)C3O)cc2)NC1=O (stereo not drawn) [Example 284b] (cyclo(G[ξPhe(βξ-Me)]Y(X2)[ξEnduracididine(βξ-OH,4'ξ)][X6]S); configuration not given here)
### Response >128 µg/mL

###

# Test system: Enterococcus sp.
# assay_name: in vitro antibacterial evaluation, MIC by broth dilution
# Format: cell-based
# experimental_setup: Enterococcus faecalis (GC 4554); broth dilution, 18 hours at 35° C.
measured_parameter: MIC Enterococcus faecalis (GC 4554) (µg/mL)
The answer is to be given in µg/mL; state only the numeric part.

{"columns": ["compound", "unit_abbreviation", "MIC Enterococcus faecalis (GC 4554)"],
 "data": [
  ["N=C1NCC(C(O)C2NC(=O)C(Cc3ccc(OC4OC(CO)C(OC5OC6COC7(OC6C6OC8(OC56)C5CC6CC(C5)CC8C6)C5CC6CC(C5)CC7C6)C(O)C4O)cc3)NC(=O)C(CC3CCCCC3)NC(=O)CNC(=O)C(CO)NC(=O)C(C(O)C3CNC(=N)N3C3OC(CO)C(O)C(O)C3O)NC2=O)N1 (stereo not shown) [Example 106b]", "µg/mL", 16],
  ["CC(c1ccccc1)C1NC(=O)CNC(=O)C(CO)NC(=O)C(C(O)C2CN(CCCCCCCCCCCCO)C(=N)N2C2OC(CO)C(O)C(O)C2O)NC(=O)C(C(O)C2CNC(=N)N2)NC(=O)C(Cc2ccc(OC3OC(CO)C(OC4OC(CO)C(O)C(O)C4O)C(O)C3O)cc2)NC1=O (stereo not shown) [Example 61]", "µg/mL", 128],
  ["CCCC(CCC)C(=O)OCC1OC(OC2C(CO)OC(Oc3ccc(CC4NC(=O)C(C(C)c5ccccc5)NC(=O)CNC(=O)C(CO)NC(=O)C(C(O)C5CNC(=N)N5C5OC(CO)C(O)C(O)C5O)NC(=O)C(C(O)C5CNC(=N)N5)NC4=O)cc3)C(O)C2O)C(O)C(O)C1O (stereo not shown) [Example 99c]", "µg/mL", 4]
]}

### Prompt Lab note: Enterococcus sp. assay, enter MIC Enterococcus faecalis (GC 4554) for CC(c1ccccc1)C1NC(=O)CNC(=O)C(CO)NC(=O)C(C(O)C2CNC(=N)N2C2OC(CO)C(O)C(O)C2O)NC(=O)C(C(O)C2CNC(=N)N2)NC(=O)C(Cc2ccc(OC3OC(CO)C(OC4OC5COC(c6cccs6)OC5C(O)C4O)C(O)C3O)cc2)NC1=O (stereo not shown) [Example 132] here
### Response 8
